// provenance: ChEMBL document CHEMBL1165972

Biological target: CYP3A4 (Homo sapiens)
Sequence (P08684 whole entry): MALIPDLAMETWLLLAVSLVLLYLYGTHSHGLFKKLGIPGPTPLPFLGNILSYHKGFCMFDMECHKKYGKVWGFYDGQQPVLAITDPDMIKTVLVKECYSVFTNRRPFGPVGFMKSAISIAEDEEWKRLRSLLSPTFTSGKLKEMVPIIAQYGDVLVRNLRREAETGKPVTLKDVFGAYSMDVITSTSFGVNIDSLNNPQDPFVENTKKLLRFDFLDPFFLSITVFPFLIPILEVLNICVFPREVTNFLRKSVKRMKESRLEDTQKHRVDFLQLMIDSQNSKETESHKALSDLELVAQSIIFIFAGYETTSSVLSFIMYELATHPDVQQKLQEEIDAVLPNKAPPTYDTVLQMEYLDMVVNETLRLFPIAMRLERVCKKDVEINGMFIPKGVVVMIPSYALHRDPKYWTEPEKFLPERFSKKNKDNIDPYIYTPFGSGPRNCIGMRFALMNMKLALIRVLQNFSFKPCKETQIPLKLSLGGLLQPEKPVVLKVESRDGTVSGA
Assay: Inhibition of human recombinant CYP3A4 at 10 uM by spectrofluorimetry
Format: ADME
# key: entry, value: inhibition at 10 µM
Dear colleague, please return just the value in %, with no unit written.

{"columns": ["chemical_smiles", "readout_kind", "experimental_value"],
 "data": [
  ["CCCCOC(=O)NS(=O)(=O)c1sc(CC(C)C)cc1-c1ccc(Cn2cnc(C)c2)cc1", "inhibition at 10 µM", 44],
  ["CCCCOC(=O)NS(=O)(=O)c1sc(CC(C)C)cc1-c1ccc(Cc2nccs2)cc1", "inhibition at 10 µM", 70],
  ["CCCCOC(=O)NS(=O)(=O)c1sc(CC(C)C)cc1-c1ccc(C(=O)c2ncco2)cc1", "inhibition at 10 µM", 36],
  ["CCCCOC(=O)NS(=O)(=O)c1sc(CC(C)C)cc1-c1ccc(CN2CCCC2=O)cc1", "inhibition at 10 µM", 28],
  ["CCCCOC(=O)NS(=O)(=O)c1sc(CC(C)C)cc1-c1ccc(Cn2cccn2)cc1", "inhibition at 10 µM", 16],
  ["CCCCOC(=O)NS(=O)(=O)c1sc(CC(C)C)cc1-c1ccc(CN2C(=O)CN(C)C2=O)cc1", "inhibition at 10 µM", 25]
]}

query: Supply reported inhibition at 10 µM belonging to this compound: CCCCOC(=O)NS(=O)(=O)c1sc(CC(C)C)cc1-c1ccc(CN2C(=O)N(C)C(C)(C)C2=O)cc1
result: 20

query: Supply reported inhibition at 10 µM belonging to this compound: CCCCOC(=O)NS(=O)(=O)c1sc(CC(C)C)cc1-c1ccc(C(=O)c2nccn2C)cc1
result: 14

query: Supply reported inhibition at 10 µM belonging to this compound: CCCCOC(=O)NS(=O)(=O)c1sc(CC(C)C)cc1-c1ccc(CN2CCN(C)C2=O)cc1
result: 20

query: Supply reported inhibition at 10 µM belonging to this compound: CCCCOC(=O)NS(=O)(=O)c1sc(CC(C)C)cc1-c1ccc(Cn2ccnc2)cc1
result: 82

###

Molecular target: CYP2C9 (Homo sapiens)
Assay: Inhibition of human recombinant CYP2C9 at 10 uM by spectrofluorimetry
Assay type: ADME
# key: entry, value: inhibition at 10 µM
Dear colleague, please return just the value in %, with no unit written.

{"columns": ["compound", "experimental_value"],
 "data": [
  ["CCCCOC(=O)NS(=O)(=O)c1sc(CC(C)C)cc1-c1ccc(Cn2ccnc2)cc1 [BULOXIBUTID]", 94],
  ["CCCCOC(=O)NS(=O)(=O)c1sc(CC(C)C)cc1-c1ccc(CN2C(=O)CN(C)C2=O)cc1", 40],
  ["CCCCOC(=O)NS(=O)(=O)c1sc(CC(C)C)cc1-c1ccc(CN2CCCC2=O)cc1", 24],
  ["CCCCOC(=O)NS(=O)(=O)c1sc(CC(C)C)cc1-c1ccc(Cn2ccc(C(F)(F)F)n2)cc1", 56]
]}

Let us examine a further case.
query: With CYP2C9 (Homo sapiens) as the test system, provide measured inhibition at 10 µM for this compound: CCCCOC(=O)NS(=O)(=O)c1sc(CC(C)C)cc1-c1ccc(C(=O)c2nccs2)cc1
result: 92

###

Molecular target: CYP2C9 (Homo sapiens, UniProt P11712)
Sequence (P11712 whole entry): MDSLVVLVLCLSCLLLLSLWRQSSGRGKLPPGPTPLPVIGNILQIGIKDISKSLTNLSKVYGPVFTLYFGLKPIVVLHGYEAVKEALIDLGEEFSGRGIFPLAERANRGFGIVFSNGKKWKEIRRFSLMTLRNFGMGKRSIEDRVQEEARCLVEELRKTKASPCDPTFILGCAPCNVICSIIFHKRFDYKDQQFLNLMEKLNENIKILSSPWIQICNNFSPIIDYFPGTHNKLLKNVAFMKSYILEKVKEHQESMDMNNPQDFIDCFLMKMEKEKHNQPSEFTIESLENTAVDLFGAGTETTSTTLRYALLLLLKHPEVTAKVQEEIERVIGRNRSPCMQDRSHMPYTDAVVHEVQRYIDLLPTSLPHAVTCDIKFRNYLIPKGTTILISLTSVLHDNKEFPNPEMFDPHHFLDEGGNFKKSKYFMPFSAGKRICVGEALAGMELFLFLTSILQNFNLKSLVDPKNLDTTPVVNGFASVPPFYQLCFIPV
Test: Inhibition of human recombinant CYP2C9 at 10 uM by spectrofluorimetry
Type: ADME
So basically: inhibition at 10 µM at 40% or higher? That is Fulfilled. Lower than 40%? That is Not fulfilled.

{"columns": ["chemical_smiles", "target_entity", "assigned_category"],
 "data": [
  ["CCCCOC(=O)NS(=O)(=O)c1sc(CC(C)C)cc1-c1ccc(Cn2cnc(C)c2)cc1", "CYP2C9 (Homo sapiens, UniProt P11712)", "Not fulfilled"]
]}

query: Does the molecule CCCCOC(=O)NS(=O)(=O)c1sc(CC(C)C)cc1-c1ccc(C(=O)c2ncco2)cc1 have recorded inhibition at 10 µM that is 40% or more?
result: Fulfilled

query: Does the molecule CCCCOC(=O)NS(=O)(=O)c1sc(CC(C)C)cc1-c1ccc(Cc2ncco2)cc1 have recorded inhibition at 10 µM that is 40% or more?
result: Fulfilled

query: Does the molecule CCCCOC(=O)NS(=O)(=O)c1sc(CC(C)C)cc1-c1ccc(Cn2cnc(C(F)(F)F)c2)cc1 have recorded inhibition at 10 µM that is 40% or more?
result: Not fulfilled
